test system: Staphylococcus epidermidis; experiment: Antibacterial activity against methicillin-susceptible Staphylococcus epidermidis 07T202 by broth microdilution method; type: functional
parameter: MIC

INSERT INTO assay_data (compound_structure_string, recorded_result) VALUES
  ('CC[C@H]1OC(=O)[C@H](C)C(=O)[C@H](C)[C@@H](O[C@@H]2O[C@H](C)C[C@H](N(C)C)[C@H]2O)[C@@](C)(OC)C[C@@H](C)C(=O)[C@H](C)[C@H]2N(CCCSc3ccccn3)C(=O)O[C@]12C', '> 16 mg/L'),
  ('CC[C@H]1OC(=O)[C@H](C)C(=O)[C@H](C)[C@@H](O[C@@H]2O[C@H](C)C[C@H](N(C)C)[C@H]2O)[C@@](C)(OC)C[C@@H](C)C(=O)[C@H](C)[C@H]2N(CCCSc3nc(-c4ccccc4)cs3)C(=O)O[C@]12C', '32 mg/L'),
  ('CC[C@H]1OC(=O)[C@H](C)C(=O)[C@H](C)[C@@H](O[C@@H]2O[C@H](C)C[C@H](N(C)C)[C@H]2O)[C@@](C)(OC)C[C@@H](C)C(=O)[C@H](C)[C@H]2N(CCCSc3nncs3)C(=O)O[C@]12C', '> 16 mg/L'),
  ('CC[C@H]1OC(=O)[C@H](C)C(=O)[C@H](C)[C@@H](O[C@@H]2O[C@H](C)C[C@H](N(C)C)[C@H]2O)[C@@](C)(OC)C[C@@H](C)C(=O)[C@H](C)[C@H]2N(CCCSc3nccc(C)n3)C(=O)O[C@]12C', '> 32 mg/L'),
  ('CC[C@H]1OC(=O)[C@H](C)C(=O)[C@H](C)[C@@H](O[C@@H]2O[C@H](C)C[C@H](N(C)C)[C@H]2O)[C@@](C)(OC)C[C@@H](C)C(=O)[C@H](C)[C@H]2N(CCCSc3nc(-c4cccnc4)c[nH]3)C(=O)O[C@]12C', '32 mg/L'),
  ('CC[C@H]1OC(=O)[C@H](C)C(=O)[C@H](C)[C@@H](O[C@@H]2O[C@H](C)C[C@H](N(C)C)[C@H]2O)[C@@](C)(OC)C[C@@H](C)C(=O)/C(C)=C/[C@]1(C)OC(=O)NCCCSc1nc2cc([N+](=O)[O-])ccc2[nH]1', '> 16 mg/L'),
  ('CC[C@H]1OC(=O)[C@H](C)C(=O)[C@H](C)[C@@H](O[C@@H]2O[C@H](C)C[C@H](N(C)C)[C@H]2O)[C@@](C)(OC)C[C@@H](C)C(=O)[C@H](C)[C@H]2N(CCCSc3nccs3)C(=O)O[C@]12C', '> 32 mg/L'),
  ('CC[C@H]1OC(=O)[C@H](C)C(=O)[C@H](C)[C@@H](O[C@@H]2O[C@H](C)C[C@H](N(C)C)[C@H]2O)[C@@](C)(OC)C[C@@H](C)C(=O)[C@H](C)[C@H]2N(CCCSc3nnnn3-c3ccccc3)C(=O)O[C@]12C', '> 32 mg/L');
